These measurements were taken from the DeepSol protein solubility set.

procedure text: soluble on expression in E. coli; label from the status in PepcDB or PDB records

[
  {
    "sequence data": "MAEWNRAKRKRKTIEIQYTGLASNSTLKVTKVTGKHLESMGIPGKFGYEVYPEEAVYLMETGSATISTSSGRDLSLLEAFSILEAMSVPMSKYEAYKHVKRTGLVVLRPRKPTIDFERLRHVEPKIRQKFAEKSFEMLVNRHTVPEERVPNPDSFPSFENRNGQISMKMKVLHTSPALVNFLPLEMLESIQTSTILQNLKPPTPNRPPCRPPSYWPFVDHHVTNWQEFRFQAEQARQETVLRRLKKLRPPSHAELRRERITVENVDFHVFSPASFSHRLPARPLFSLICYSATGPPLKISELAELENVVFAMEEAGKVNFVAMSGASIDLNNYLC",
    "soluble on expression in E. coli": "not soluble"
  },
  {
    "sequence data": "MGHHHHHHSHMYSEIQRERADIGGLMARPEYREWNPELIKPKKLLNPVKASRSHQELHRELLMNHRRGLGVDSKPELQRVLEHRRRNQLIKKKKEELEAKRLQCPFEQELLRRQQRLNQLEKPPEKEEDHAPEFIKVRENLRRIATLTSEEREL",
    "soluble on expression in E. coli": "not soluble"
  }
]

---

procedure text: soluble on expression in E. coli; label from the status in PepcDB or PDB records

[
  {
    "sequence data": "MQSVLNLGKTTVTTCTFLRAASTSLQGKGPLKTNWKENVVYLYQFPRPANRQPNLSPYCLKIETFLRANRIKHEVVGTWLTLRQSPRGLLPFIELNGQQISDSQVIVWKLQKHFDLDDKLEGSDRGTARAVERMIDLSTNYALLVDKTVNNAHLLLARQVSNLPLPSFLTNYLAKGFSQTARKRVNGVLGKLDVAEQKELLRRDIRAIDDILGDKKFLFGDRITSVDCSVFGQIGAVFYLPYRQQISDLLEDDFPRVRAYCDRIRQHYYPEWRDD",
    "soluble on expression in E. coli": "not soluble"
  },
  {
    "sequence data": "MAHHHHHHMMDMRQLDVSAVARSAMSCMEAKHMSANVKLYTLGFLTFLASSKSWQPYRMSHPDKVEEQALYEDSELASSFISTKYPAGWQQNASEVLNTKFPGLLGEVTAHLSLGGKDTISALPRRHDGR",
    "soluble on expression in E. coli": "not soluble"
  },
  {
    "sequence data": "MGSDKIHHHHHHMRYVKLHSEYFPEFFNRLKEVGRVYGPVRHNSTYRFEEVNSIDELSLDYTRTILPPKKFFIRPRDAMFKIQKNEVTEVDGDGKFVLFGVHSCDIHGIKILDKVYLSNPPDPYYERRRKNAFIVGISCMPDEYCFCKSLGTDFAMDGFDIFLHELPDGWLVRVGSVKGHEFVWENQDIFDDVTEEDLRNFKEFEEKRAKAFKKSLNKEGLADILDLAFTSKVWKKYAEKCLGCGNCTIVCPTCRCYEVCDTWVRAYEALRMRRYDSCFMPTHGLVAGGHNFRPTRLDRFRHRYYCKNYFDPEAGFNCVGCGRCDEFCPARIEHVKVLDEVREGLI",
    "soluble on expression in E. coli": "not soluble"
  }
]

---

procedure text: soluble on expression in E. coli; label from the status in PepcDB or PDB records

[
  {
    "sequence data": "MVVISVIAIVLLLVYLDDKLGQFIFRNGRKTVVYPERRSDISLYINGRHLFSDYFAELGRARDHIHVLFYIIKNDETSAPFFQILKEKAAAGVKVRVLTDWVGSFGLPKALIRSLEESGVEFAYARKPRFPFFIYRLNRRNHRKITVIDGRVGYIGGFNIGREYNGKDANFGEWRDYHLKVNGEGVHDLQEQFLHDWEEATGRTVPDKHRYFPPLPAGAIRHQLVATNGAALEEQFIEVIRQAKKEIMIGSPYFIPSRPLFNELMQALRRGVRVTVLVPLKADHLFVKEAAYPYFYRLLKAGARIYRFYQGFYHAKTLVIDEEWCDVGTANFDRRSLFLNGEINCYVFDRGFTRLVKRAIERDLLRRRAADGRLLAKTFAS",
    "soluble on expression in E. coli": "not soluble"
  },
  {
    "sequence data": "MSLHLSNVILHQLCKNDQDELVVKLRPASLENDASTENLVAELHRVFHSKAGKGFGSFQSDSEFQFWLQEMRKGERDFYDFSQISANRLKEELIKYPFADEGILVFAEYQSLATDYLFIGILPMNQSLKVTEGLDISATDYLDITKMDIAARIDLSSYETDKESNRYLQYIKGRVGRKVADFFLDFLQADIGLDTKQQNLVLMQAVDDFCADSKLEKQEVNEYKKQVYNYCNEQIKSGEEVQISELSGELPPSQDGTSFMDFTKEQGYELEESFPGDRSTVRKLTKYVGAGGGLNISFDSLLLGERIFYDPETDTLTIKGTPPNLKDQLSRNLEHHHHHH",
    "soluble on expression in E. coli": "soluble"
  },
  {
    "sequence data": "INYRCPKRVITLINNIRKGDDQNVQVPKEDAIDGFVRLFIVDSNTTDKLELENKIRFQMAMLTHDEDWNIAEEVKTLTLEHDMAASRGGFDEFLLPLSSVSSLRDAALNGTSKNINFITSTLLPFIDAVEKDDSFEVARIIKSGSLLISDSNQSFLLNPIGTLKDIDSNVVEFKKILVNGKVTLHNVLSTIQKFELLSLPDELLVYLSDIEQGEPNEPESDTKLLSDVDKAWGLALNSSIGHVKNYAKYVNETLGYATHQGVKGLEYKRVMAVLDDKFKGFLFDYEKLFGAKDLTKKDIENEDLGKDSALSRTRRLFYVICSRAEQSLAVVAYSNDPIAIEKTAIESEWFSKDEIVLI",
    "soluble on expression in E. coli": "not soluble"
  },
  {
    "sequence data": "MKRLSFLTLRPRHLSFLTLQRRNALRDALRHRSAPRRAFRIGRRASRTACDAERRTIVRLSFRALQPRRLSLLTLQRRNALRDALRHRSAPRRVFRIGRRASRTACDAQRCTIVRLSFRALQPRRLSFLTLQRRSALRDALHHKSAPRCTFKIGRGASRTACDAERRTIVRLSFRALQPRRLSFLTLQRRNALGDALRHKSAPRCTFKIGREASRTACDAERRTIVRLSFRALQPRRLSFLTLQRRNALRDALRHKSAPRRAFRIGRRASRTACDAERRTIVSQISLNALEHHHHHH",
    "soluble on expression in E. coli": "not soluble"
  },
  {
    "sequence data": "MSEETIEKFEDNVEHQNQDQPVPEGMSKKQLRRQKYKVKWEEKKLVKRAAERIRKKEKRAALKESGDLSKLRKRKDFRTMAQSNSKQRIALDMSFDDLMIEKDQKRTVQQIGWCYTANRHSPDPFQFHVVGFDGPSRKIYDGNEHNLNQDIHLHQEKLENLFKPEEIVYLTSESENVLSDLDDTKVYVIGGIVDHNSQKGLCYRIAQEKGFGHAKLPLDEHLLMKSRRVLTINQVYEILVHYSVHKNWKDALLSIIPERKNAQLKEEVVEEKPESLEEIGKLDTESTDTATGSPKIN",
    "soluble on expression in E. coli": "soluble"
  }
]
